S. aureus ATCC29213 measurements of MIC, listed per entry.
Give bare numbers, in µg/mL.

# example entries with known answers
[[record]]
molecule = "CC[C@H]1OC(=O)[C@H](C)C(=O)[C@H](C)[C@@H](O[C@@H]2O[C@H](C)C[C@H](N(C)C)[C@H]2O)[C@](C)(OC)C[C@@H](C)C(=O)[C@H](C)[C@H]2[C@H](SCCn3cnc(-c4cccnc4)c3)C(=O)O[C@@]21C"
recorded_measurement = 0.25

[[record]]
molecule = "CO[C@@H]1[C@@H](O[C@@H]2O[C@H](C)[C@@H](O[C@H]3C[C@@](C)(O)[C@@H](OC(=O)CC(C)C)[C@H](C)O3)[C@H](N(C)C)[C@H]2O)[C@@H](CC=O)C[C@@H](C)[C@@H](O)/C=C/C=C/C[C@@H](C)OC(=O)C[C@H]1OC(C)=O [Josamycin, reference compound]"
recorded_measurement = 2

[[record]]
molecule = "CC[C@H]1OC(=O)[C@H](C)[C@@H](O[C@H]2C[C@@](C)(OC)[C@@H](O)[C@H](C)O2)[C@H](C)[C@@H](O[C@@H]2O[C@H](C)C[C@H](N(C)C)[C@H]2O)[C@](C)(OC)C[C@@H](C)C(=O)[C@H](C)[C@@H](O)[C@]1(C)O"
recorded_measurement = 0.25

[[record]]
molecule = "CC[C@H]1OC(=O)[C@H](C)C(=O)[C@H](C)[C@@H](O[C@@H]2O[C@H](C)C[C@H](N(C)C)[C@H]2O)[C@](C)(OC)C[C@@H](C)C(=O)[C@H](C)[C@H]2[C@H](Sc3ccccc3)C(=O)O[C@@]21C"
recorded_measurement = 0.5

[[record]]
molecule = "CC[C@H]1OC(=O)[C@H](C)C(=O)[C@H](C)[C@@H](O[C@@H]2O[C@H](C)C[C@H](N(C)C)[C@H]2O)[C@](C)(OC)C[C@@H](C)C(=O)[C@H](C)[C@H]2[C@H](SCCn3cncn3)C(=O)O[C@@]21C"
recorded_measurement = 0.25


Turning now to a further molecule:
Q) For the molecule shown here, CC[C@H]1OC(=O)[C@H](C)C(=O)[C@H](C)[C@@H](O[C@@H]2O[C@H](C)C[C@H](N(C)C)[C@H]2O)[C@](C)(OC)C[C@@H](C)C(=O)[C@H](C)[C@H]2[C@H](SCc3ccccc3)C(=O)O[C@@]21C , give the reported MIC.
A) 1

----------
I'd be grateful if you could share measured MIC for these entries.
# Test system: H. influenzae ATCC 9334
# Assay details: MIC, agar dilution, HTM medium
# Format: cell-based, Haemophilus influenzae
# Condition parameters: Haemophilus influenzae, ATCC9334, read-out: MIC

# example entries with known answers
[[record]]
compound = "CC[C@H]1OC(=O)[C@H](C)[C@@H](O[C@H]2C[C@@](C)(OC)[C@@H](O)[C@H](C)O2)[C@H](C)[C@@H](O[C@@H]2O[C@H](C)C[C@H](N(C)C)[C@H]2O)[C@](C)(O)C[C@@H](C)C(=O)[C@H](C)[C@@H](O)[C@]1(C)O"
system_name = "H. influenzae ATCC 9334"
recorded_measurement = "4 µg/mL"

[[record]]
compound = "CC[C@H]1OC(=O)[C@H](C)C(=O)[C@H](C)[C@@H](O[C@@H]2O[C@H](C)C[C@H](N(C)C)[C@H]2O)[C@](C)(OC)C[C@@H](C)C(=O)[C@H](C)[C@H]2[C@H](SCCn3cc(C)c(=O)[nH]c3=O)C(=O)O[C@@]21C"
system_name = "H. influenzae ATCC 9334"
recorded_measurement = "4 µg/mL"

[[record]]
compound = "CC[C@H]1OC(=O)[C@H](C)[C@@H](O[C@H]2C[C@@](C)(OC)[C@@H](O)C(C)O2)[C@H](C)[C@@H](O[C@@H]2OC(C)C[C@H](N(C)C)[C@H]2O)[C@](C)(O)C[C@@H](C)CN(C)C(C)C(O)[C@]1(C)O (stereo partly drawn)"
system_name = "H. influenzae ATCC 9334"
recorded_measurement = "2 µg/mL"

[[record]]
compound = "CC[C@H]1OC(=O)[C@H](C)C(=O)[C@H](C)[C@@H](O[C@@H]2O[C@H](C)C[C@H](N(C)C)[C@H]2O)[C@](C)(OC)C[C@@H](C)C(=O)[C@H](C)[C@H]2[C@H](SCCn3cnc4c(N)ncnc43)C(=O)O[C@@]21C"
system_name = "H. influenzae ATCC 9334"
recorded_measurement = "4 µg/mL"


Answer for every listed entry: what is its MIC? The entries follow.
1. CC[C@H]1OC(=O)[C@H](C)[C@@H](O[C@H]2C[C@@](C)(OC)[C@@H](O)[C@H](C)O2)[C@H](C)[C@@H](O[C@@H]2O[C@H](C)C[C@H](N(C)C)[C@H]2O)[C@](C)(OC)C[C@@H](C)C(=O)[C@H](C)[C@@H](O)[C@]1(C)O
2. CC[C@H]1OC(=O)[C@H](C)C(=O)[C@H](C)[C@@H](O[C@@H]2O[C@H](C)C[C@H](N(C)C)[C@H]2O)[C@](C)(OC)C[C@@H](C)C(=O)[C@H](C)[C@H]2N(CCCCn3cnc(-c4cccnc4)c3)C(=O)O[C@]12C

A)
1: 8 µg/mL; 2: 2 µg/mL

----------
Give measured MIC for each item. Keep answers brief.
# Tested on: S. aureus ATCC29213
Write the quantity with the unit trailing the number.

[[record]]
molecule_smiles = "CC[C@H]1OC(=O)[C@H](C)C(=O)[C@H](C)[C@@H](O[C@@H]2O[C@H](C)C[C@H](N(C)C)[C@H]2O)[C@](C)(OC)C[C@@H](C)C(=O)[C@H](C)[C@H]2[C@H](S(=O)(=O)CCCc3ccccc3)C(=O)O[C@@]21C"
recorded_measurement = "1 µg/mL"


// next entry
Q) Dear colleague, I am looking for the recorded MIC of the following compound: CC[C@H]1OC(=O)[C@H](C)[C@@H](O[C@H]2C[C@@](C)(OC)[C@@H](O)[C@H](C)O2)[C@H](C)[C@@H](O[C@@H]2O[C@H](C)C[C@H](N(C)C)[C@H]2O)[C@](C)(O)C[C@@H](C)C(=O)[C@H](C)[C@@H](O)[C@]1(C)O
A) 0.5 µg/mL

----------
# System: St. pneumoniae 1/1
# Assay details: MIC, standard microdilution
# Assay type: cell-based, Streptococcus pneumoniae
# Condition parameters: Streptococcus pneumoniae, read-out: minimum inhibitory concentration (MIC)
Measured property: MIC

Previously resolved entries follow.
[[record]]
molecule = "CC[C@H]1OC(=O)[C@H](C)[C@@H](O[C@H]2C[C@@](C)(OC)[C@@H](O)[C@H](C)O2)[C@H](C)[C@@H](O[C@@H]2O[C@H](C)C[C@H](N(C)C)[C@H]2O)[C@](C)(O)C[C@@H](C)C(=O)[C@H](C)[C@@H](O)[C@]1(C)O [Erythromycin (1), erythromycin A]"
measured_property = "MIC"
recorded_measurement = "≤ 0.12 µg/mL"

[[record]]
molecule = "CC[C@H]1OC(=O)[C@H](C)C(=O)[C@H](C)[C@@H](O[C@@H]2O[C@H](C)C[C@H](N(C)C)[C@H]2O)[C@](C)(OC)C[C@@H](C)C(=O)[C@H](C)[C@H]2CC(=O)O[C@@]21C [Compound I-25]"
measured_property = "MIC"
recorded_measurement = "≤ 0.12 µg/mL"

[[record]]
molecule = "CC[C@H]1OC(=O)[C@H](C)C(=O)[C@H](C)[C@@H](O[C@@H]2O[C@H](C)C[C@H](N(C)C)[C@H]2O)[C@](C)(OC)C[C@@H](C)C(=O)[C@H](C)[C@H]2[C@H](C#N)C(=O)O[C@@]21C [Compound I-23]"
measured_property = "MIC"
recorded_measurement = "≤ 0.5 µg/mL"


We next turn to a different molecule, shown below.
Q) Test system St. pneumoniae 1/1; read-out MIC; what value for CC[C@H]1OC(=O)[C@H](C)[C@@H](O[C@H]2C[C@@](C)(OC)[C@@H](O)[C@H](C)O2)[C@H](C)[C@@H](O[C@@H]2O[C@H](C)C[C@H](N(C)C)[C@H]2O)[C@](C)(OC)C[C@@H](C)C(=O)[C@H](C)[C@@H](O)[C@]1(C)O [Clarithromycin (2), clarithromycin] ?
A) ≤ 0.12 µg/mL

----------
# Test system: H. influenzae QK 50
# Assay details: MIC, agar dilution, HTM medium
# Format: cell-based, Haemophilus influenzae
# Condition parameters: Haemophilus influenzae, QK50, read-out: MIC
Please respond with reported MIC for every item in the list.
Give bare numbers, in µg/mL.

Take a look at these entries with their results.
[[record]]
molecule = "CC[C@H]1OC(=O)[C@H](C)[C@@H](O[C@H]2C[C@@](C)(OC)[C@@H](O)C(C)O2)[C@H](C)[C@@H](O[C@@H]2OC(C)C[C@H](N(C)C)[C@H]2O)[C@](C)(O)C[C@@H](C)CN(C)C(C)C(O)[C@]1(C)O (stereo partly shown)"
recorded_measurement = 2

[[record]]
molecule = "CC[C@H]1OC(=O)[C@H](C)[C@@H](O[C@H]2C[C@@](C)(OC)[C@@H](O)[C@H](C)O2)[C@H](C)[C@@H](O[C@@H]2O[C@H](C)C[C@H](N(C)C)[C@H]2O)[C@](C)(OC)C[C@@H](C)C(=O)[C@H](C)[C@@H](O)[C@]1(C)O"
recorded_measurement = 8

[[record]]
molecule = "CC[C@H]1OC(=O)[C@H](C)C(=O)[C@H](C)[C@@H](O[C@@H]2O[C@H](C)C[C@H](N(C)C)[C@H]2O)[C@](C)(OC)C[C@@H](C)C(=O)[C@H](C)[C@H]2N(CCCCn3cnc(-c4cccnc4)c3)C(=O)O[C@]12C"
recorded_measurement = 2


Q) Fill in: MIC of CC[C@H]1OC(=O)[C@H](C)[C@@H](O[C@H]2C[C@@](C)(OC)[C@@H](O)[C@H](C)O2)[C@H](C)[C@@H](O[C@@H]2O[C@H](C)C[C@H](N(C)C)[C@H]2O)[C@](C)(O)C[C@@H](C)C(=O)[C@H](C)[C@@H](O)[C@]1(C)O is ___
A) 4

This collection of values is drawn from patent US6740642B2.
